Test: HepG2 cell viability effects, profiling panel, calcein-AM fluorescence, 48 h, basal (AID 1164); also: test concentration not given here
Conditions: higher = more signal
Exercise: state measured z-score for each of the compounds provided.
Returns: the value as a bare number; no unit string appended.

q: Form field: reported z-score of CC(C)C[C@@H]1NC(=O)[C@@H]2C[C@H](C(=O)NCCCCCNC(=O)CS)[C@H](c3cccc(OCCO)c3)N2C1=O
a: -0.646

q: Now try O=C(O)[C@H]1C[C@H]2C(=O)NCC(=O)N2[C@H]1c1cccc(OCCO)c1 .
a: -0.59

q: Now try C=CCN1C(=O)[C@@]2(O[C@@H](CCO)[C@H]([Si](C)(C)c3ccc(OC)cc3)[C@H]2C)c2cc(N(C=O)c3ccccc3)ccc21 .
a: -4.73

q: Now try COC(=O)C(CC#Cc1ccc2c(c1)[C@]1(C(=O)N2)[C@H](C(=O)O)[C@H]2C(=O)O[C@H](c3ccccc3)[C@H](c3ccccc3)N2[C@@H]1c1ccc(OCCO)cc1)C(=O)OC .
a: 1.27

q: Now try O=c1n(-c2ccccc2)c(=O)n2n1CC(COc1ccccc1)=C1[C@@H](CCc3ccccc3)OB(O)C[C@@H]12 .
a: -0.28

q: Now try NC(=O)NCC#Cc1ccc2c(c1)[C@]1(C(=O)N2)[C@H](c2ccc(OCCO)cc2)N2[C@H](c3ccccc3)[C@H](c3ccccc3)OC(=O)[C@H]2[C@@H]1C(=O)Nc1nc2ccccc2s1 .
a: -0.348

* * *

Test: yeast growth modulation, basal conditions, primary screen, YJM789 clinical isolate, OD600, 24 h (AID 1089);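 also: growth of clinical yeast isolate S. cerevisiae YJM 789 seeded 1000 cells per well; test concentration not given here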
Conditions: S. cerevisiae YJM789 growth, higher = more signal, called active from +8 up or from −8 down
Exercise: state measured z-score for each of the compounds provided.
Returns: the value as a bare number; no unit string appended.

q: Form field: reported z-score of CCCNC(=O)[C@@]1(Sc2ccc(C)cc2)CC(=O)N(Cc2cc(C(F)(F)F)cc(C(F)(F)F)c2)[C@@H]1c1ccc(CO)cc1I
a: -5.07

q: Now try C=CCN1C(=O)[C@@]2(O[C@@H](CCn3cc(CCO)nn3)[C@H]([Si](C)(C)c3ccc(OC)cc3)[C@H]2C)c2cc(NC(=O)c3ccc(OC)cc3)ccc21 .
a: -0.0986

q: Now try C=CCC(OC(C)=O)[C@@H]1[C@@H](N(Cc2cccc3ccccc23)C(=O)Cc2ccc(OC)cc2)c2cc(OCCCO)ccc2N1C(=O)Cc1ccc(OC)cc1 (some centres not stated) .
a: 0.395

q: Now try CCCCCCC#C[Si](O[C@H](c1ccccc1)c1cn(Cc2ccccc2)nn1)(C(C)C)C(C)C .
a: -0.501

q: Now try C[N+](C)(C)CCCC[C@@H]1NC(=O)[C@@H]2C[C@H](C(=O)NCCCCCNC(=O)CS)[C@H](c3ccc(O)cc3)N2C1=O .
a: -1.44

q: Now try CC(C)C(CO)N1C(=O)[C@@H]2[C@H]3C(=O)OCC=C[C@H]3OC23C=CCN(Cc2ccccc2)C(=O)[C@@H]13 (some centres not stated) .
a: -0.899

q: Now try CCCCCN1CC=CC23O[C@@H]4/C=C\CCC(C)OC(=O)C4[C@H]2C(=O)N(CCO)[C@@H]3C1=O (some centres not stated) .
a: -0.139

src = PubChem BioAssay
